Measured GI50, listed per entry.
- Test system: SF-268 CNS
- experimental-protocol: NCI tumour cell line growth inhibition, 48 h
parameter: GI50

compound: COc1cc2c3c(n(CCCN)c(=O)c2cc1OC)-c1ccc(N(C)C)cc1C3=O
parameter: GI50
val: 16.1 µM
--
compound: Nc1c(C(=O)N/N=C/c2ccco2)cnn1-c1ccnc2c(C(F)(F)F)cccc12
parameter: GI50
val: 31.6 µM
--
compound: CCCCCCCC/C(=C\C1=C(C)C(=O)C(OC)=C(OC)C1=O)C(=O)O
parameter: GI50
val: 29.5 µM
--
compound: O=C(Nc1ccccc1C(=O)N/N=C(\c1ccccc1)c1ccccn1)c1ccccc1
parameter: GI50
val: 0.609 µM
--
compound: COc1ccc2c(c1OC)C(=O)OC2C1c2c(c(N)c3c(c2OC)OCO3)CCN1C (stereo not given)
parameter: GI50
val: 4.57 µM

###

- Tested on: SNB-19 CNS
- experimental-protocol: NCI tumour cell line growth inhibition, 48 h
Measured TGI, listed per entry.

compound: COc1cc(-c2cc(-c3nc4ccc(F)cc4[nH]3)[nH]n2)cc(OC)c1OC
TGI: 18.8 µM
//
compound: CCCC(=O)Nc1ccc(O)c2c1C1CCCCCC21 (configuration not stated)
TGI: > 100 µM
//
compound: Cc1ccc(I)cc1N=C=S
TGI: 70.1 µM
//
compound: O=S(=O)(Nc1nc2ccccc2n1S(=O)(=O)c1ccccc1)c1ccccc1
TGI: > 100 µM
//
compound: COCCOc1nc(-c2ccccc2)nc2ccccc12
TGI: > 100 µM
//
compound: CCCCCCCCCCCCCCCC(=O)Nc1ccn(C2CC(OP(=O)(O)OCC3OC(n4cc(F)c(=O)[nH]c4=O)CC3OC(C)=O)C(CO)O2)c(=O)n1 (configuration not stated)
TGI: > 63.2 µM
//
compound: CN(C)C(=S)/N=c1\ssc(=Nc2ccccc2)n1C
TGI: > 100 µM

###

- System: SK-MEL-2 melanoma
- experimental-protocol: NCI tumour cell line growth inhibition, 48 h

compound: CCCCCC[n+]1noc(N)c1-c1ccc(-c2c(N)on[n+]2CCCCCC)cc1
tested-target: SK-MEL-2 melanoma
TGI: 3.1 µg/mL

compound: CN(C)CCNc1ccc2nnn3c4ccc(O)cc4c(=O)c1c23
tested-target: SK-MEL-2 melanoma
TGI: 22.6 µM

compound: CC1(CO)OC(n2cnc3c(N)ncnc32)C(O)C1O (stereo not given)
tested-target: SK-MEL-2 melanoma
TGI: > 100 µM

compound: CC1(C)OCC[C@@H]1[Si](C)(C)C
tested-target: SK-MEL-2 melanoma
TGI: > 100 µM

compound: CC(C)C(NCc1c2ccccc2[n+]([O-])c2ccccc12)C(=O)O (stereo not given)
tested-target: SK-MEL-2 melanoma
TGI: > 100 µM

compound: O=C1C(c2ccccc2)=[N+]([O-])c2ccc(Cl)cc21
tested-target: SK-MEL-2 melanoma
TGI: > 100 µM

compound: O=C(O)CCC1(C(=O)O)CCC(=O)c2ccccc21 (stereo not given)
tested-target: SK-MEL-2 melanoma
TGI: > 100 µM

compound: CCCCCCCC/C(=C\C1=C(C)C(=O)C(OC)=C(OC)C1=O)C(=O)O
tested-target: SK-MEL-2 melanoma
TGI: > 100 µM

compound: Nc1c(C(=O)N/N=C/c2ccco2)cnn1-c1ccnc2c(C(F)(F)F)cccc12
tested-target: SK-MEL-2 melanoma
TGI: > 100 µM

compound: CCOC(=O)c1cc2c([nH]1)c(OC(C)=O)cc1c2ccn1Cc1ccccc1
tested-target: SK-MEL-2 melanoma
TGI: > 100 µM

compound: NC(N)=N/N=C(\c1ccc(F)cc1)c1ccc(C(F)(F)F)cc1
tested-target: SK-MEL-2 melanoma
TGI: 4.06 µM

compound: COC(=O)[C@@H]1c2[nH]c3ccccc3c2C[C@@H]2c3ccccc3NC(=O)[C@@H]21
tested-target: SK-MEL-2 melanoma
TGI: > 100 µM

compound: CCCCc1ccc(Nc2nc3c(ncn3COCCBr)c(=O)[nH]2)cc1
tested-target: SK-MEL-2 melanoma
TGI: > 100 µM

compound: C#CC#CC#CC#CC#CC#CC#CC#CC[C@@H]1OC[C@H](COC(=O)O[C@@H](C(=O)O[C@H]2C[C@@]3(O)[C@@H](OC(=O)c4ccccc4)[C@@H]4[C@]5(OC(C)=O)CO[C@@H]5C[C@H](O)[C@@]4(C)C(=O)[C@H](OC(C)=O)C(=C2C)C3(C)C)[C@@H](NC(=O)c2ccccc2)c2ccccc2)O1
tested-target: SK-MEL-2 melanoma
TGI: > 25 µM

compound: CCN(CC)c1c(C(=O)/C=C/c2ccc(F)cc2)c(-c2ccccc2)nn(C)c1=O
tested-target: SK-MEL-2 melanoma
TGI: 16.7 µM
